Would you mind telling me the reported AUC (area under the dose-response curve) of each entry?
- Target Desc: SMARCA2 (Homo sapiens, UniProt P51531)
- Construct: endogenous in cells; host or cells: A375
- Sequence (P51531 whole entry): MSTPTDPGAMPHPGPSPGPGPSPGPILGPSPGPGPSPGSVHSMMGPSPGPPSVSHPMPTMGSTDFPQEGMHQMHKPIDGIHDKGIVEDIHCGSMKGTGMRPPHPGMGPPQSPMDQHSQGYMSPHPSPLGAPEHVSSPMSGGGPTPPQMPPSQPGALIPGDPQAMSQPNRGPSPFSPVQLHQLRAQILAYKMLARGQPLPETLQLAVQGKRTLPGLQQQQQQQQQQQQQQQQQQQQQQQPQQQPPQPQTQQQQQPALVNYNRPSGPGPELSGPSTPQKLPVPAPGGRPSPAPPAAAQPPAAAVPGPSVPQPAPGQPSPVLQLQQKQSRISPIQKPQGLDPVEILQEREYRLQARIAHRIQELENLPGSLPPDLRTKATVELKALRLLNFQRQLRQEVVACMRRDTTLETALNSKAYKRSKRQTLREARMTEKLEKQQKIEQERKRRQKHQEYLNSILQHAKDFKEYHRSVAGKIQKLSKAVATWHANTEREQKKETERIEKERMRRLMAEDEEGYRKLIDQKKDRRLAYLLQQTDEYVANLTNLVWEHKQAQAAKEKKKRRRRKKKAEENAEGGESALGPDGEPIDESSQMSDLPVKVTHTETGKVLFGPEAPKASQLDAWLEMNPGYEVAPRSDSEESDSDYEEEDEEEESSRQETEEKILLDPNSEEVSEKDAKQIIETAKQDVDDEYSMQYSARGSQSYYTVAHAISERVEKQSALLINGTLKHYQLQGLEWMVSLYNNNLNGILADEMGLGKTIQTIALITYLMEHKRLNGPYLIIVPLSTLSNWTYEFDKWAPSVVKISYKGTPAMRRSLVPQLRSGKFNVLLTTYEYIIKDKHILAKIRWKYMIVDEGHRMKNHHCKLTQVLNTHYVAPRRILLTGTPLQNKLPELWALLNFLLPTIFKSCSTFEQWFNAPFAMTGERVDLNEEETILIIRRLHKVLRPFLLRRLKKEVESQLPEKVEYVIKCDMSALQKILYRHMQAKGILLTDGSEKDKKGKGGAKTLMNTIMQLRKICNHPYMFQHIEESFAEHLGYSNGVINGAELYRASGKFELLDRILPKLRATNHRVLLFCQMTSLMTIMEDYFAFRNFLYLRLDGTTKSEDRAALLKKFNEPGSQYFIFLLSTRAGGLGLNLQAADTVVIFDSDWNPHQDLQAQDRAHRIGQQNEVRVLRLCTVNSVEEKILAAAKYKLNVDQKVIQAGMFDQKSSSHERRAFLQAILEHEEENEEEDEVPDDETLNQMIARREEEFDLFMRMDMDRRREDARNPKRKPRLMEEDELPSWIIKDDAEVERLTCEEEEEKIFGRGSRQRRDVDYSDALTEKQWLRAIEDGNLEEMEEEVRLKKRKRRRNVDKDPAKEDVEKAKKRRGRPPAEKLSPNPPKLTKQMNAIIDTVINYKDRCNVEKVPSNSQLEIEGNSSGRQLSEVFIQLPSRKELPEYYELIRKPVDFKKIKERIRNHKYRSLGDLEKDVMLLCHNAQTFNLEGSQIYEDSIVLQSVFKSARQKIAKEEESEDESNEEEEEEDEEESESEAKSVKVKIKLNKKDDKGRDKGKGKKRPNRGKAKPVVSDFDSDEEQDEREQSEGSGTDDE
- Assay Summary: SMARCA2 degradation, MSD assay, dose response
- Assay type: cell-based
- Set-up: key: sum of trapezoids of POC vs dose points, h = 1
- Cond: SMARCA2 MSD assay, A375 cells, 2 h

# compound Cc1ncsc1-c1ccc(CNC(=O)C2C[C@@H](O)CN2C(=O)C(NC(=O)C2(F)CC2)C(C)(C)C)c(OCCc2ccc(CN3CCN(c4cc(-c5ccccc5O)nnc4N)CC3)cc2)c1 (stereo in doubt) [Compound 11, reference compound] ; its AUC (area under the dose-response curve) = 119

# compound Cc1ncsc1-c1ccc([C@H](C)NC(=O)[C@@H]2C[C@@H](O)CN2C(=O)[C@@H](NC(=O)CN2CCN(c3cc(-c4ccccc4O)nnc3N)CC2)C(C)(C)C)cc1 [Compound 6, reference compound] ; its AUC (area under the dose-response curve) = 26

# compound `Cc1ncsc1-c1ccc([C@H](C)NC(=O)[C@@H]2C[C@@H](O)CN2C(=O)[C@@H](NC(=O)c2ccnc(N3CCN(c4cnnc(-c5ccccc5O)c4)CC3)c2)C(C)(C)C)cc1` ; its AUC (area under the dose-response curve) = 100

* * *

- Target Desc: VHL/EloB/EloC (VBC) (Homo sapiens)
- Construct: VHL (54-213), ElonginB (17-112) ElonginC (1-104); made in house
- Sequence (Q15369 17-112): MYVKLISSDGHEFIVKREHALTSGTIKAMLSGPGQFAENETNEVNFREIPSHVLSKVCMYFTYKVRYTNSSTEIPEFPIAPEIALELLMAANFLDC
- Sequence (Q15370 1-104, further chain): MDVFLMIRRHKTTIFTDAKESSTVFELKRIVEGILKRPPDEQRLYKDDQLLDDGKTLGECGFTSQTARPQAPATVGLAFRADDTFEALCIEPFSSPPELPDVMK
- Sequence (P40337 54-213): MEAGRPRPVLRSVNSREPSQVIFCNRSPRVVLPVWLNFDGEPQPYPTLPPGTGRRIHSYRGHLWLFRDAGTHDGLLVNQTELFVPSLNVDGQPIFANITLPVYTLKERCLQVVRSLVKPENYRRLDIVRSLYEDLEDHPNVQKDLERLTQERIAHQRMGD
- Assay Summary: SPR binary binding of PROTAC to VBC-functionalized surface
- Cond: SPR; error SEM, N = 3; read-out: KLP (binary binding affinity between E3 ligase VHL and PROTAC)
Would you mind telling me the reported pKd of each entry?
As a rule, pKd stands for the negative log10 of the concentration, concentration in M.

# compound Cc1ncsc1-c1ccc([C@H](C)NC(=O)[C@@H]2C[C@@H](O)CN2C(=O)[C@@H](NC(=O)CN2CCN(c3cc(-c4ccccc4O)nnc3N)CC2)C(C)(C)C)cc1 [Compound 6, reference compound] ; its pKd = 7.96

# compound `Cc1ncsc1-c1ccc([C@H](C)NC(=O)[C@@H]2C[C@@H](O)CN2C(=O)[C@@H](NC(=O)c2ccnc(N3CCN(c4cnnc(-c5ccccc5O)c4)CC3)c2)C(C)(C)C)cc1` ; its pKd = 7.22

# compound `Cc1ncsc1-c1ccc([C@H](C)NC(=O)[C@@H]2C[C@@H](O)CN2C(=O)[C@@H](NC(=O)c2cccc(N3CCN(c4cc(-c5ccccc5O)nnc4N)CC3)c2)C(C)(C)C)cc1` ; its pKd = 6.78

* * *

- Target Desc: SMARCA2-NanoLuc (Homo sapiens, UniProt P51531)
- Construct: expressed in transfected cells; host or cells: HEK293
- Sequence (P51531 whole entry): as the sequence (P51531 whole entry) above
- Assay Summary: NanoBRET target engagement assay, live and permeabilized HEK293 cells (SMARCA2)
- Assay type: cell-based
- Cond: live HEK293 cells, SMARCA2 NanoBRET TE; read-out: Live-Cell TE IC50
Observation Type: IC50 (nM)
Response body: numeric value in nM, unit text excluded.

# molecule Cc1ncsc1-c1ccc([C@H](C)NC(=O)[C@@H]2C[C@@H](O)CN2C(=O)[C@@H](NC(=O)CN2CCN(c3cc(-c4ccccc4O)nnc3N)CC2)C(C)(C)C)cc1 [Compound 6, reference compound] ; its IC50 = 1410

# molecule `Cc1ncsc1-c1ccc([C@H](C)NC(=O)[C@@H]2C[C@@H](O)CN2C(=O)[C@@H](NC(=O)CCc2ccnc(N3CCN(c4cc(-c5ccccc5O)nnc4N)CC3)c2)C(C)(C)C)cc1` ; its IC50 = 600

# molecule `Cc1ncsc1-c1ccc([C@H](C)NC(=O)[C@@H]2C[C@@H](O)CN2C(=O)[C@@H](NC(=O)c2csc(N3CCN(c4cc(-c5ccccc5O)nnc4N)CC3)n2)C(C)(C)C)cc1` ; its IC50 = 1260

# molecule `Cc1ncsc1-c1ccc([C@H](C)NC(=O)[C@@H]2C[C@@H](O)CN2C(=O)[C@@H](NC(=O)c2cccc(N3CCN(c4cc(-c5ccccc5O)nnc4N)CC3)c2)C(C)(C)C)cc1` ; its IC50 = 820

# molecule `Cc1ncsc1-c1ccc([C@H](C)NC(=O)[C@@H]2C[C@@H](O)CN2C(=O)[C@@H](NC(=O)c2ccnc(N3CCN(c4cc(-c5ccccc5O)nnc4N)CC3)c2)C(C)(C)C)cc1` ; its IC50 = 200

# molecule `Cc1ncsc1-c1ccc([C@H](C)NC(=O)[C@@H]2C[C@@H](O)CN2C(=O)[C@@H](NC(=O)c2cccc(N3CCN(c4cc(-c5ccccc5O)nnc4N)CC3)n2)C(C)(C)C)cc1` ; its IC50 = 400

# molecule `Cc1ncsc1-c1ccc([C@H](C)NC(=O)[C@@H]2C[C@@H](O)CN2C(=O)[C@@H](NC(=O)Cc2ccnc(N3CCN(c4cc(-c5ccccc5O)nnc4N)CC3)c2)C(C)(C)C)cc1` ; its IC50 = 690

# molecule Cc1ncsc1-c1ccc(CNC(=O)C2C[C@@H](O)CN2C(=O)C(NC(=O)C2(F)CC2)C(C)(C)C)c(OCCc2ccc(CN3CCN(c4cc(-c5ccccc5O)nnc4N)CC3)cc2)c1 (stereo in doubt) [Compound 11, reference compound] ; its IC50 = 980

# molecule `Cc1ncsc1-c1ccc([C@H](C)NC(=O)[C@@H]2C[C@@H](O)CN2C(=O)[C@@H](NC(=O)c2ccnc(N3CCN(c4cnnc(-c5ccccc5O)c4)CC3)c2)C(C)(C)C)cc1` ; its IC50 = 2370
